Listed molecules paired with reported inhibition at 1 µM
# EXPERIMENTAL SYSTEM: c-Met kinase domain recombinant protein (Homo sapiens, UniProt P08581)
# Construct: 50 μL diluted solution of c-Met kinase domain recombinant protein in reaction buffer was added to initiate the reaction
# Sequence (P08581 1078-1345 limits assumed): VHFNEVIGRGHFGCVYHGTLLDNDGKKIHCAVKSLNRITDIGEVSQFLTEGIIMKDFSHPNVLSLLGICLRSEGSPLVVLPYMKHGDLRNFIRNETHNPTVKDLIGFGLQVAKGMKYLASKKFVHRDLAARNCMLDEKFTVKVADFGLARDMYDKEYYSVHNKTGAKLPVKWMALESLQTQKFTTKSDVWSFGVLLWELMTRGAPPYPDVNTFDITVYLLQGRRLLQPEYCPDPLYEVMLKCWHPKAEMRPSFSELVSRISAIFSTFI
# EXPERIMENT: biochemical
# EXPERIMENTAL CONDITIONS: read-out: Average inhibition rate at 1 μM (%)
RECORDED ENDPOINT: inhibition at 1 µM (%)

• CC(C)N1CCC(n2cc(-c3cnc4cnn(S(=O)(=O)c5cnc6ccccn56)c4c3)cn2)CC1 [Example 59] = 51.9
• Cn1cc(-c2cnc3cnn(S(=O)(=O)c4cnc5ccc(-c6ccc(N7CCOCC7)cc6)cn45)c3c2)cn1 [Example 75] = 75.6
• Cn1cc(-c2cnc3cnn(S(=O)(=O)c4cnc5ccc(-c6ccc(Cl)cc6)cn45)c3c2)cn1 [Example 94] = 55.7
• Cn1cc(-c2cnc3cnn(S(=O)(=O)c4cnc5ccc(-c6ccccc6)cn45)c3c2)cn1 [Example 71] = 73.4
• CC(C)(C)OC(=O)N1CCC(n2cc(-c3cnc4cnn(S(=O)(=O)c5cnc6ccc(-c7cnn(C8CCN(C(=O)OC(C)(C)C)CC8)c7)nn56)c4c3)cn2)CC1 [Example 62] = 73.2

* * *

Listed compounds paired with reported inhibition at 10 µM
# EXPERIMENTAL SYSTEM: c-Met kinase domain recombinant protein (Homo sapiens)
# Construct: 50 μL diluted solution of c-Met kinase domain recombinant protein in reaction buffer was added to initiate the reaction
# EXPERIMENT: biochemical
# EXPERIMENTAL CONDITIONS: read-out: Inhibition rate at 10 μM (%)
RECORDED ENDPOINT: inhibition at 10 µM

* Cn1cc(-c2cnc3cnn(S(=O)(=O)c4cnc5ccc(-c6ccc(F)nc6)cn45)c3c2)cn1 [Example 99] | > 73.3%
* Cn1cc(-c2cnc3cnn(S(=O)(=O)c4cnc5ccc(-c6ccc7c(c6)OCO7)cn45)c3c2)cn1 [Example 98] | > 77.9%
* Cn1cc(-c2cnc3cnn(S(=O)(=O)c4cnc5ccc(-c6ccc(N7CCOCC7)cc6)cn45)c3c2)cn1 [Example 75] | > 77.3%
* CNC(=O)c1ccc(-c2ccc3ncc(S(=O)(=O)n4ncc5ncc(-c6cnn(CCN(C)C)c6)cc54)n3c2)cc1F [Example 102] | > 65.5%
* CNC(=O)c1ccc(-c2ccc3ncc(S(=O)(=O)n4ncc5ncc(-c6cnn(C)c6)cc54)n3c2)cc1F [Example 101] | > 64.5%
* Cc1ccc(-c2ccc3ncc(S(=O)(=O)n4ncc5ncc(-c6cnn(C)c6)cc54)n3c2)cc1 [Example 90] | > 72.2%

* * *

# EXPERIMENTAL SYSTEM: c-Met kinase domain recombinant protein (Homo sapiens)
# Construct: 50 μL diluted solution of c-Met kinase domain recombinant protein in reaction buffer was added to initiate the reaction
# EXPERIMENT: biochemical
# EXPERIMENTAL CONDITIONS: read-out: Inhibition rate at 10 μM (%)
RECORDED ENDPOINT: inhibition at 10 µM

- Cc1ccc(-c2ccc3ncc(S(=O)(=O)n4ncc5ncc(-c6cnn(C)c6)cc54)n3c2)cc1F: > 12.1%
- O=S(=O)(c1cnc2ccccn12)n1ncc2ncc(-c3ccccc3)cc21: 70.6%
- CC(C)(C)OC(=O)N1CCC(n2cc(-c3cnc4cnn(S(=O)(=O)c5cnc6ncccn56)c4c3)cn2)CC1: 54.5%
- Cn1cc(-c2cnc3cnn(S(=O)(=O)c4cccc(C(F)(F)F)c4)c3c2)cn1: 73.2%
